Molecular target: DNA (cytosine-5)-methyltransferase 1 (Homo sapiens) (UniProt P26358)
Sequence (P26358 504-1616 limits assumed): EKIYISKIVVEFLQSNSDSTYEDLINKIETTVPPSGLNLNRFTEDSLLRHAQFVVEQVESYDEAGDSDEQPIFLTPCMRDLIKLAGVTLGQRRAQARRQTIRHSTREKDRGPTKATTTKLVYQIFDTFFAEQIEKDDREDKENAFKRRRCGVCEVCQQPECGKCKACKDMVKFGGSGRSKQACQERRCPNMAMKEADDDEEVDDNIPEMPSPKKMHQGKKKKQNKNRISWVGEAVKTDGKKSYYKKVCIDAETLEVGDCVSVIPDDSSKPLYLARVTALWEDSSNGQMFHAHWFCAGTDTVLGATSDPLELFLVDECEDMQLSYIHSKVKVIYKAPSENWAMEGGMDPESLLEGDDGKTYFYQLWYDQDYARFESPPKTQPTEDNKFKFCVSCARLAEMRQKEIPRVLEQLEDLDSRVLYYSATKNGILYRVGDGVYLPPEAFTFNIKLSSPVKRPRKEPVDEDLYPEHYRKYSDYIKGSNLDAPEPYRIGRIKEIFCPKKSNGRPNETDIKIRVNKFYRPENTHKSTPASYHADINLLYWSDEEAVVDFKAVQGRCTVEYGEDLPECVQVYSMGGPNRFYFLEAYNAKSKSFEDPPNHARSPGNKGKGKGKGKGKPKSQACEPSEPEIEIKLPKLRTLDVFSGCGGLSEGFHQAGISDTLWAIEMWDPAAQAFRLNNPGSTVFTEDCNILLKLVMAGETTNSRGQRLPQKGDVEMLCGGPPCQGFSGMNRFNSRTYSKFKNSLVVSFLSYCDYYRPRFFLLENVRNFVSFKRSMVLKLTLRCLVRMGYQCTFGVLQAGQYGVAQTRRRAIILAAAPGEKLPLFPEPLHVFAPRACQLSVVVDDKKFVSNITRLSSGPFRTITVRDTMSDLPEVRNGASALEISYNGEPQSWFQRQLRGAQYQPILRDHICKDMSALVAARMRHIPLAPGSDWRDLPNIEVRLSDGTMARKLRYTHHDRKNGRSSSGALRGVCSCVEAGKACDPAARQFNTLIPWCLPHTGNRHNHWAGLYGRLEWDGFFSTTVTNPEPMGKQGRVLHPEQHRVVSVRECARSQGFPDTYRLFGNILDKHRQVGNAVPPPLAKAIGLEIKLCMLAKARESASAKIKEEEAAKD
Assay: inhibition of DNA methyltransferase DNMT1 – biochemical, molecular beacon, fluorescence, HinP1I cleavage, uHTS, primary screen (AID 588458)
Conditions: at 10 µM
Hit rate of the full screen: of about 360,000 compounds, about 3,000 (0.83%) were called active. Cut-off read from the data, not from the text of the source: active = inhibition above about 50%; inactive = the rest. For the sample, actives were picked, then their nearest neighbours and some compounds at random.
Respond using exactly one of the listed classes: True = active, False = inactive

What classification did COc1cc(C)c(C(C)C)cc1S(=O)(=O)n1ccnc1 end up with in this test?
False

Name the outcome recorded for CCS(=O)(=O)C1=NSC2=NC(=O)/C(=C\c3ccc(OS(=O)(=O)c4ccccc4)cc3)C(=N)N21 in the assay.
False

Test call for this compound, please: CC(C)CCNC(=O)c1ccc2c(Cl)c3c(nc2c1)CCC3
False

Check the results log: what was the call for O=C(NCc1ccco1)c1cnn2c(C(F)(F)F)cc(-c3ccco3)nc12 ?
False

Check the results log: what was the call for C#Cc1ccc(NC(=O)C2(C)CCN2C(=O)Cc2ccc(-c3ccccc3)cc2)cc1 (stereo not given) ?
False

Any idea what this test logged for COc1cccc(NC(=O)c2ccc3c(SCC(=O)O)c4c(nc3c2)CCCC4)c1 ?
False

Fill in: this test's call for CC(=O)c1ccc(NC(=O)c2ccc3c(Cl)c4c(nc3c2)CCCC4)cc1 is ___
True

# lookup: test call for COc1ccccc1-n1nnnc1S(=O)(=O)Cc1ccc(Cl)cc1
False

For O=C(CCC1CCCN(C(=O)c2ccc(F)c(F)c2)C1)N1CCN(c2ccccn2)CC1 (stereo not given) , which call appears in the assay record?
False

Would you mind telling me which call this test gave CS(=O)(=O)c1ccc2c(c1)SC1=NC(=O)/C(=C/c3ccco3)C(=N)N12 ?
True
